System: P388 leukemia ip, CD2F1 mice, survival T/C
protocol.details: NCI In Vivo Anticancer Drug Screen. Data for tumor model P388 Leukemia (intraperitoneal) in CD2F1 (CDF1) mice
condition.info: endpoint: median survival time; dose: 60.0 mg/kg/injection; schedule: Q01DX005 (ip); vehicle: saline; higher = longer survival
Toxic doses and inconclusive results are not listed.

{"columns": ["compound", "T/C"],
 "data": [
  ["c1ccc(CCNCCN2CCNCC2)cc1", "108 % of control"],
  ["CC(C)N(CCO)CC(O)Cn1cnc2ncnc(N)c21 (stereo not drawn)", "94 % of control"],
  ["COc1cc(/C=C(/NC(=O)c2ccccc2)C(O)=C(C#N)C#N)ccc1O", "95 % of control"],
  ["COC(=O)C(C)N(CCCl)P1(=O)OCCCN1CCCl (stereo not drawn)", "99 % of control"],
  ["C=CCOc1cc2c(cc1Cc1cc(OC)c(OC)c(OC)c1)OCO2", "100 % of control"],
  ["O=P(O)(O)c1ccccc1P(=O)(O)O", "105 % of control"],
  ["O=C1NC(=O)C2C3CCC(O3)C12 (stereo not drawn)", "101 % of control"],
  ["CC(C)=NNC1=NC(C)(C)P(=O)(N2CCCC2C(=O)O)S1 (stereo not drawn)", "98 % of control"],
  ["O=C1c2ccccc2C(=O)c2c(O)c(O)cc(O)c21", "94 % of control"],
  ["CCN(CCO)CC(O)Cn1cnc2c(N)ncnc21 (stereo not drawn) (tested in a mixture with another compound)", "97 % of control"],
  ["Nc1cc(F)ccc1CC(=O)O", "103 % of control"],
  ["NCCOCCN", "100 % of control"],
  ["CSc1nc(C)c(C(=O)CCN2CCN(c3ccccn3)CC2)s1", "104 % of control"]
]}
